Target: HLA-A*3101 (Homo sapiens, UniProt P04439, A270S/D185E/E176V/E277Q/F33T/G231S/G80R/H175R/I121M/I218V/I322F/K168Q/L300P/L318F/M331R/P217A/Q94H/R138Q/T323A/T345S/T97I/V358M)
Assay: purified HLA class I binding assay, A*3101
Conditions: HIV A03 supermotif peptides, Table IX; unit not given

Residue Sequence | A*3101 binding information
QARYLAVER | 0.0320
TVQCTIIGIR | 0.0880
TVQCTIIGIK | 0.0042
QMVIIQAISPR | 0.0740

----------
Listed here: items and their measured A*1101 (binding information).
Molecular target: HLA-A*1101 (Homo sapiens, UniProt P04439, A114D/D185E/E176A/F33Y/L180Q/S129P/T187R)
Experiment: purified HLA class I binding assay, A*1101
Details: Table XVII, HIV A11 motif peptides; binding value A*1101, unit not given
Endpoint Name: A*1101 (binding information)

Residue Sequence | System Tested | Quantitative Result
TAVQMAVFIII | HLA-A*1101 (Homo sapiens, UniProt P04439, A114D/D185E/E176A/F33Y/L180Q/S129P/T187R) | 0.0110
QLDCTIILEGK | HLA-A*1101 (Homo sapiens, UniProt P04439, A114D/D185E/E176A/F33Y/L180Q/S129P/T187R) | 0.0003
PCIMDGPKVK | HLA-A*1101 (Homo sapiens, UniProt P04439, A114D/D185E/E176A/F33Y/L180Q/S129P/T187R) | 0.0001
SDLEIGQIIR | HLA-A*1101 (Homo sapiens, UniProt P04439, A114D/D185E/E176A/F33Y/L180Q/S129P/T187R) | 0.0001
VASCDKCQLK | HLA-A*1101 (Homo sapiens, UniProt P04439, A114D/D185E/E176A/F33Y/L180Q/S129P/T187R) | 0.0004
MTKILIEPFR | HLA-A*1101 (Homo sapiens, UniProt P04439, A114D/D185E/E176A/F33Y/L180Q/S129P/T187R) | 0.0160
KVKQWPLTEE | HLA-A*1101 (Homo sapiens, UniProt P04439, A114D/D185E/E176A/F33Y/L180Q/S129P/T187R) | 0.0330
FVNIPPLVK | HLA-A*1101 (Homo sapiens, UniProt P04439, A114D/D185E/E176A/F33Y/L180Q/S129P/T187R) | 0.0660
ASCDKCQLK | HLA-A*1101 (Homo sapiens, UniProt P04439, A114D/D185E/E176A/F33Y/L180Q/S129P/T187R) | 0.0040
IIGVYYDPSK | HLA-A*1101 (Homo sapiens, UniProt P04439, A114D/D185E/E176A/F33Y/L180Q/S129P/T187R) | 0.0001
FTTPDKKIIQK | HLA-A*1101 (Homo sapiens, UniProt P04439, A114D/D185E/E176A/F33Y/L180Q/S129P/T187R) | 0.0150
LGIPIIPAGLK | HLA-A*1101 (Homo sapiens, UniProt P04439, A114D/D185E/E176A/F33Y/L180Q/S129P/T187R) | 0.0150
WMGYELIIPDK | HLA-A*1101 (Homo sapiens, UniProt P04439, A114D/D185E/E176A/F33Y/L180Q/S129P/T187R) | 0.0004
IVASCDKCQLK | HLA-A*1101 (Homo sapiens, UniProt P04439, A114D/D185E/E176A/F33Y/L180Q/S129P/T187R) | 0.1000
GIPIIPAGLKK | HLA-A*1101 (Homo sapiens, UniProt P04439, A114D/D185E/E176A/F33Y/L180Q/S129P/T187R) | 0.1700
GIPIIPAGLK | HLA-A*1101 (Homo sapiens, UniProt P04439, A114D/D185E/E176A/F33Y/L180Q/S129P/T187R) | 0.0650
